Target: canine FcRn (FcRn large subunit with canine beta-2-microglobulin) (canine)
Test: SPR pH 6.0, SASA-Fc captured on BSA, FcRn 100-800 nM
measurement name: koff (s⁻¹)
Expressed in s⁻¹, but write only the number.

1) canine IgGB Fc (CH2-CH3) T286Y with N-terminal SASA tag (Fc fusion, part only; not given: SASA tag, not shown: another chain or arm of the molecule; small tags and cut ends) Fc: APEMLGGPSVFIFPPKPKDTLLIARTPEVTCVVVDLDPEDPEVQISWFVDGKQMQYAKTQPREEQFNGTYRVVSVLPIGHQDWLKGKQFTCKVNNKALPSPIERTISKARGQAHQPSVYVLPPSREELSKNTVSLTCLIKDFFPPDIDVEWQSNGQQEPESKYRTTPPQLDEDGSYFLYSKLSVDKSRWQRGDTFICAVMHEALHNHYTQESLSHSPGK: 0.162

IN: So what does the record say about koff for canine IgGB Fc (CH2-CH3) T286W with N-terminal SASA tag (Fc fusion, part only; not given: SASA tag, not shown: another chain or arm of the molecule; small tags and cut ends) Fc: APEMLGGPSVFIFPPKPKDTLLIARTPEVTCVVVDLDPEDPEVQISWFVDGKQMQWAKTQPREEQFNGTYRVVSVLPIGHQDWLKGKQFTCKVNNKALPSPIERTISKARGQAHQPSVYVLPPSREELSKNTVSLTCLIKDFFPPDIDVEWQSNGQQEPESKYRTTPPQLDEDGSYFLYSKLSVDKSRWQRGDTFICAVMHEALHNHYTQESLSHSPGK ?
OUT: 0.195
